Target: UPR counterscreen luciferase reporter, luminescence
Assay: luciferase reporter activation, UPR counterscreen line – cell-based, luminescence, counter-screen for adaptive UPR activator project, dose response (AID 489027)
Activity calls are given as the source filed them. How the calls were made is not given here.
readout.label: EC50

The cases that follow already have their EC50 on record.
Find the measured EC50: item Cc1nc(Nc2nc(-c3ccccc3)cc(=O)[nH]2)nc2ccccc12 , target or system UPR counterscreen luciferase reporter, luminescence. > 80 µM (inactive)

Find the measured EC50: item O=C(NCCC1=CCCCC1)C(=O)NCC(c1ccco1)N1CCN(c2ccc(F)cc2)CC1 (stereo not given) , target or system UPR counterscreen luciferase reporter, luminescence. > 80 µM (inactive)

Find the measured EC50: item COc1cccc(/C=N/Nc2ccc([N+](=O)[O-])cn2)c1O , target or system UPR counterscreen luciferase reporter, luminescence. > 80 µM (inactive)

Find the measured EC50: item Cc1cc(C)c(NC(=O)CSc2nc(COc3ccccc3)nc3ccccc23)c(C)c1 , target or system UPR counterscreen luciferase reporter, luminescence. inactive

Others:
Find the measured EC50: item CCC(=O)Nc1ccc(NC(=O)CSc2nc3cc4c(cc3cc2C)CCC4)cc1 , target or system UPR counterscreen luciferase reporter, luminescence. > 80 µM (inactive)

====

Target: UPR counterscreen luciferase reporter, luminescence
Assay: luciferase reporter activation, UPR counterscreen line – cell-based, luminescence, counter-screen for adaptive UPR activator project, dose response (AID 489027)
The source made the active and inactive calls. The rule behind the calls is not given here.
Permitted responses: active, inactive

Entry Cc1ccc(Cl)cc1N1CCN(Cc2nc3c(c(=O)[nH]c(=O)n3C)n2CCc2ccccc2)CC1 : call = ? active

Entry O=C(NCCCn1ccnc1)c1nn2c(C(F)(F)F)cc(-c3ccc(Br)cc3)nc2c1Cl : call = ? inactive

Entry C[C@@H]1C[C@H]2[C@@H]3CCC4=CC(=O)C=C[C@]4(C)[C@@]3(Cl)[C@@H](O)C[C@]2(C)[C@@]1(OC(=O)c1ccco1)C(=O)CCl : call = ? inactive

Entry O=c1cc2oc3cc(O)c(O)cc3c(-c3ccccc3[N+](=O)[O-])c-2cc1O : call = ? inactive

Entry CSc1ccccc1NC(=O)c1cc(-c2cccnc2)nc2ccc(Br)cc12 : call = ? inactive

Entry Cc1ccc2nc(/C(C#N)=C/c3ccc(O)c(O)c3)[nH]c2c1 : call = ? active

Entry CCC(C)(C)C1CCC2(CC1)NC(=O)N(CC(=O)N1CCN(S(=O)(=O)c3cc(C)ccc3C)CC1)C2=O (centres undefined) : call = ? active

Entry Cc1ccc(C(C)C)c(OCc2ccc(C(=O)N/N=C/c3ccc(O)c(O)c3)cc2)c1 : call = ? active

Entry CCOc1ccccc1N=Cc1c(O)c2ccccc2oc1=O : call = ? active

Entry Cc1ccc(CN2C(=O)C(=O)c3cc(C)ccc32)cc1 : call = ? inactive

Entry Brc1cc2c(cc1/C=N/Nc1nc3ccccc3s1)OCO2 : call = ? inactive

Entry N#C/C(=C\Nc1ccc2cn[nH]c2c1)c1nc(-c2ccc(Cl)cc2)cs1 : call = ? inactive

Entry O=[N+]([O-])c1ccc(N/N=C/c2cccc(O)c2O)c(S(=O)(=O)N2CCOCC2)c1 : call = ? active

Entry CC(C)CC(NC(=O)c1ccc(Cl)cc1)C(=O)OCC(=O)c1ccc2c(c1)NC(=O)CO2 (centres undefined) : call = ? inactive

Entry COc1ccc(OC)c(-c2nnc3n2N=C(c2ccc(OC)c(OCC4CC4)c2)CS3)c1 : call = ? inactive

Entry CCN(CC)CCn1c(SCC(=O)Nc2ccc(F)cc2)nc2c(sc3ccccc32)c1=O : call = ? inactive

Entry Cc1ccc(F)cc1N=Cc1c(O)c2ccccc2oc1=O : call = ? active

Entry COc1ccc(C2c3ccc4ccccc4c3Oc3ncn(CCCN(C)C)c(=N)c32)cc1 (centres undefined) : call = ? active

Entry O=C(Nc1ccc(Br)cc1)c1cc(-c2ccncc2)nc2ccccc12 : call = ? active

Entry Cc1cc(N2CCN(c3ccc([N+](=O)[O-])c4cccnc34)CC2)c2ccccc2n1 : call = ? inactive

Entry CCCCNC(=O)c1ccc(Cn2c(=S)[nH]c3c([nH]c4ccc(OC)cc43)c2=O)cc1 : call = ? inactive

Entry CCOC(=O)c1nnc(-c2ccccc2)nc1Oc1ccc(Cl)cc1 : call = ? active

Entry Brc1ccc(C2=Nn3c(nnc3-c3n[nH]c4c3CCC4)SC2)cc1 : call = ? inactive

Entry CC(C)(C)c1ccc(C(=O)Nc2ccc(O)c3c(=O)cc(-c4cccc(Cl)c4)oc23)cc1 : call = ? inactive

Entry Cc1cc(C)c2c(c1)/C(=N/Nc1ccc(S(N)(=O)=O)cc1[N+](=O)[O-])CCC2 : call = ? inactive

Entry O=C(N/N=C/c1ccccc1Cl)c1[nH]c2ccc(Br)cc2c1-c1ccccc1 : call = ? inactive

Entry Cc1nn(Cc2c(Cl)cccc2Cl)c(C)c1NC(=O)c1cn(-c2ccccc2)nc1-c1ccccc1 : call = ? active

Entry CCOC(=O)c1nn(-c2ccc(OCC)cc2)c2nc(-c3ccco3)c(C#N)c(=O)n12 : call = ? inactive

Entry Cc1ccc(O)c(NC(=S)NC(=O)Cc2ccc(Cl)cc2)c1 : call = ? inactive

Entry Cc1cccc2sc(NC(=O)c3cc(S(=O)(=O)N(C)C)ccc3N3CCCC3)nc12 : call = ? active

Entry Cn1c(Cl)cnc1C1CC(=O)c2cc(Cl)ccc2O1 (centres undefined) : call = ? active

Entry Cc1cc(N2CCN(c3nc(-c4ccc([N+](=O)[O-])cc4)cs3)CC2)c2ccccc2n1 : call = ? active

Entry CN(C)CCCNC(=O)c1ccc(-c2nc(-c3ccc(Cl)cc3)cs2)cc1 : call = ? active

Entry CCOC(=O)c1cc(NC(=O)c2ccc(Cl)cc2)c(=O)n2c1oc1ccc(Cl)cc12 : call = ? inactive

Entry CCCc1nc2ccccc2c(=O)n1/N=C/c1ccc(O)c(O)c1 : call = ? active

Entry CCCCN1C(=O)/C(=C2/Sc3ccc(OC)cc3N2CC)SC1=S : call = ? inactive

Entry C=CCN(CC=C)S(=O)(=O)c1ccc(C(=O)Nc2nc3c(s2)CCc2ccccc2-3)cc1 : call = ? inactive

Entry NC1=NC[C@@H](CC2CCCCC2)N1CCc1cc(C(F)(F)F)cc(C(F)(F)F)c1 : call = ? inactive

Entry O=C(C[C@@H]1C/C=C/CC[C@H](Cc2ccc(F)cc2)C(=O)OC[C@@H](Cc2ccccc2)NC1=O)N[C@H](CO)Cc1ccccc1 : call = ? active
